- EXPERIMENTAL TARGET: T1, LIN7B, Q9HAP6
- T1 sequence (Q9HAP6 88-185, limits assumed, looked up): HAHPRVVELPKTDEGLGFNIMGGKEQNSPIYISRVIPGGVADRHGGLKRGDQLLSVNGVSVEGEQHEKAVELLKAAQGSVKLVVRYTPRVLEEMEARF
- METHOD SUMMARY: holdup assay
- Design: key: below the threshold = too weak to quantify, mostly under pKd 3.1 to 4
- CONDITION NOTES: plain residues with an end cap or a label only (N-terminal biotin on a linker: ado-ado)
ENDPOINT LABEL: pKd

{"BINDER": "TACCHSETVV [TGFA, P01135]", "VAL": "below the threshold"}
{"BINDER": "TKGPRGPTRV [SAPCD1, Q5SSQ6]", "VAL": "below the threshold"}
{"BINDER": "LGRSTPQSEV [DGKH, Q86XP1]", "VAL": "below the threshold"}
{"BINDER": "SSALYGESDL [ACTN2, P35609]", "VAL": 3.76}
{"BINDER": "TASPAKETSF [SLC2A7, Q6PXP3]", "VAL": 4.5}

Your task in this section: give pKd for each listed record.
1. PEYLGLDVPV [ERBB2, P04626]
2. SAAKVLTSMC [GHRHR, Q02643]
3. VRNLPESEEL [MYOZ3, Q8TDC0]
4. QKNRKAQEDL [CES3, Q6UWW8]
5. YYKRPVQEWV [MMP24, Q9Y5R2]

below the threshold
3.7
below the threshold
3.78
below the threshold

Your task in this section: give pKd for each listed record.
1. NHSSSPETTA [TRMT13, Q9NUP7]
2. FNSYSLTGYV [CLDN2, P57739]

1: below the threshold; 2: below the threshold
